compounds and their reported IC50
Target: Glutamate carboxypeptidase 2 (Homo sapiens, UniProt Q04609)
Sequence (Q04609 whole entry): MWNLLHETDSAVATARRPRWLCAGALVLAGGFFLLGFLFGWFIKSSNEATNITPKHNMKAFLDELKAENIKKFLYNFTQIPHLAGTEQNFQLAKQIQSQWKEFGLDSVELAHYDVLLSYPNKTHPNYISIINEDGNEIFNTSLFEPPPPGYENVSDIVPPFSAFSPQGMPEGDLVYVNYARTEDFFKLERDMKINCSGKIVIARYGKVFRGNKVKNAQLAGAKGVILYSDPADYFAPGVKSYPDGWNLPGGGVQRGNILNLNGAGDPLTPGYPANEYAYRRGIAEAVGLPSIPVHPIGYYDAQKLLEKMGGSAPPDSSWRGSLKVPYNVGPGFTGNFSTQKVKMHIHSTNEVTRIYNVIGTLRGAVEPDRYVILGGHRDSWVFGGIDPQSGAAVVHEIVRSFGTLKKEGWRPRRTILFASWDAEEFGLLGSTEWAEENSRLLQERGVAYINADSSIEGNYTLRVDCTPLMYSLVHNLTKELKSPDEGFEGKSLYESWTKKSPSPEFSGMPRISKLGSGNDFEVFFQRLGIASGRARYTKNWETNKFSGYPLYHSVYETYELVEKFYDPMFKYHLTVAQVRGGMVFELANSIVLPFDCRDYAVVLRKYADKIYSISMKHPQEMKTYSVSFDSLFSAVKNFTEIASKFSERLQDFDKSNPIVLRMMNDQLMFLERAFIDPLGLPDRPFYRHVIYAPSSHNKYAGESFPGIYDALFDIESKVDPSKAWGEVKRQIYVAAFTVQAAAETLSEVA
Assay metric: IC50 (µM)

| Smiles | Observed result |
| --- | --- |
| O=C(O)CC[C@H](NC(=S)N[C@@H](CCC(=O)O)C(=O)O)C(=O)O | 135 |
| O=C(O)CC[C@H](NC(=O)N[C@@H](CCC(=O)O)C(=O)O)C(=O)O | 1.34 |
